Source listed as patent US20230339952A1.

# tested_on: SOS1 (Homo sapiens (Human))
# Sequence (Q07889 564-1049): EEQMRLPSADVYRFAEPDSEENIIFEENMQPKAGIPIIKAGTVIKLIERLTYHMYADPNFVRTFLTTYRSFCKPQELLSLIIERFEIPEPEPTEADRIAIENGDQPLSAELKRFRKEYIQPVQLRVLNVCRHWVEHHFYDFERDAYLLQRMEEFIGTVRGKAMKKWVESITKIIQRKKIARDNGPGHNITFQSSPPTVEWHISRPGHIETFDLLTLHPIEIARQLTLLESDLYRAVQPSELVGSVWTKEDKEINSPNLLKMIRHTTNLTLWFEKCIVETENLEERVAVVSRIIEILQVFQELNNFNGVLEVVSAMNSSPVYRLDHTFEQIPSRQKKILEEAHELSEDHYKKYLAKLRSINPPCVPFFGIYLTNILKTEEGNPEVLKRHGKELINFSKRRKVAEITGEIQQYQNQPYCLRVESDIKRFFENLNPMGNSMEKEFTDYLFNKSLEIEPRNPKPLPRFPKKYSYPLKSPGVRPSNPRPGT
# assay_notes: Ras-SOS interaction assay (HTRF), K-Ras G13D utilized
# Format: binding
# assay_conditions: K-Ras G13D, read-out: SOS1 IC50
property: IC50

Consider the reported IC50 for these compounds:
C[C@H]1Nc2nc(=O)n(c3c2cc(C2(C#N)CC2)c(=O)n3C)CCC/C=C\COCC(F)(F)c2cccc1c2F; 100 to 5000 nM
C[C@H]1Nc2nc(=O)n(c3c2cc(C2(C#N)CC2)c(=O)n3C)CCCCOCC(F)(F)c2cccc1c2F; 100 to 5000 nM
C[C@H]1Nc2ncnc3c2cc(C2CCS(=O)(=O)CC2)c(=O)n3CCCCCCCN2CC(C2)CC(F)(F)c2cccc1c2F; < 100 nM

Req: Requested field: IC50. Item: "CC(C)N1CCC(c2cc3c4ncnc3n(c2=O)CCCCCCCN2CCC(CC2)C(F)(F)c2cccc(c2)[C@@H](C)N4)CC1"
Resp: < 100 nM

Req: Also, "Cc1nnc2c3cc(N4CCOCC4)nc(c13)OCCCCCCN1CCC(CC1)C(F)(F)c1cccc(c1)[C@@H](C)N2" please.
Resp: < 100 nM

Req: Also, "C[C@H]1Nc2ncnc3c2cc(N2CCS(=O)(=O)CC2)c(=O)n3CCCCCCCN2CC(C2)CC(F)(F)c2cccc1c2" please.
Resp: < 100 nM

Req: Also, "COc1cc2nc(C)nc3c2cc1OCCOCCOCCOCCNC(=O)CCOCCNCc1ccccc1-c1cccc(c1)[C@@H](C)N3" please.
Resp: 100 to 5000 nM

Req: Also, COc1cc2nc(C)nc3c2cc1OCCOCCOCCOCCOCCNC(=O)CCNCc1ccccc1C1=CC=C(S1)C(C)N3 (stereo not shown) please.
Resp: 100 to 5000 nM

Req: Also, "C[C@H]1Nc2ncnc3c2cc(C2CCS(=O)(=O)CC2)c(=O)n3CCCOCCCN2CCC(CC2)CC(F)(F)c2cccc1c2F" please.
Resp: < 100 nM

###

Listed here: items and their measured IC50.
# tested_on: SOS1 (Homo sapiens (Human))
# assay_notes: Ras-SOS interaction assay (HTRF), K-Ras G13D utilized
# Assay type: binding
# assay_conditions: K-Ras G13D, read-out: SOS1 IC50

Req: Requested field: IC50. Item: C[C@H]1Nc2ncnc3c2cc(C2(C#N)CCS(=O)(=O)CC2)c(=O)n3CCCCCCCN2CCC(CC2)C(F)(F)c2cccc1c2 [Compound 116]
Resp: < 100 nM

Req: Also, C[C@H]1Nc2ncnc3c2cc(C2(C#N)CC2)c(=O)n3CCCNC(=O)CCN2CCC(CC2)C(F)(F)c2cccc1c2F [Compound 11] please.
Resp: < 100 nM

###

# System: NCI-H1975 (ATCC CRL-5908) cell line comprising an EGFR T790M L858R double mutation
# assay_notes: EGFR-SOS cellular inhibition assay (CellTiter-Glo cell proliferation)
# Format: cell-based
# assay_conditions: Homo sapiens, 120 h; NCI-H1975 cell proliferation, approximately 5 days; read-out: H1975 IC50
Listed here: items and their measured IC50.

CC1CCCCCn2c(=O)c(C3(C#N)CC3)cc3c(ncnc32)N[C@H](C)c2cccc(c2F)C(F)(F)C2CCN(CC2)C1 (stereo partly shown); < 1000 nM

Req: Requested field: IC50. Item: "C[C@H]1Nc2ncnc3c2cc(C2(C#N)CC2)c(=O)n3CCNC(=O)CCCN2CCC(CC2)C(F)(F)c2cccc1c2"
Resp: < 1000 nM

Req: Also, "Cc1nc2c3cc(C4(C#N)CC4)c(=O)n(c3n1)CC/C=C\COCC(F)(F)c1cccc(c1F)[C@@H](C)N2" please.
Resp: 1000 to 10000 nM

Req: Also, "C[C@H]1Nc2ncnc3c2cc(C2(C#N)CC2)c(=O)n3CCCn2cc(nn2)CN2CCC(CC2)C(F)(F)c2cccc1c2" please.
Resp: < 1000 nM

###

Listed here: items and their measured IC50.
# Tested on: NCI-H1975 (ATCC CRL-5908) cell line comprising an EGFR T790M L858R double mutation
# assay_notes: EGFR-SOS cellular inhibition assay (CellTiter-Glo cell proliferation)
# Format: cell-based
# assay_conditions: Homo sapiens, 120 h; NCI-H1975 cell proliferation, approximately 5 days; read-out: H1975 IC50

Consider the reported IC50 for these compounds:
C[C@H]1Nc2ncnc3c2cc(N2CCS(=O)(=O)CC2)c(=O)n3CCCCCCCN2CCC(CC2)C(F)(F)c2cccc1c2; < 1000 nM
C[C@H]1Nc2ncnc3c2cc(C2(C#N)CC2)c(=O)n3CC(=O)NCCCCN2CCC(CC2)C(F)(F)c2cccc1c2; < 1000 nM

Moving on to another compound below.
Req: Requested field: IC50. Item: "C[C@H]1Nc2ncnc3c2cc(C2CCS(=O)(=O)CC2)c(=O)n3CCCC(=O)NCCN2CCC(CC2)C(F)(F)c2cccc1c2"
Resp: < 1000 nM

###

Listed here: items and their measured pIC50.
# Tested on: NCI-H1975 (ATCC CRL-5908) cell line comprising an EGFR T790M L858R double mutation
# assay_notes: EGFR-SOS cellular inhibition assay (CellTiter-Glo cell proliferation)
# Type: cell-based
# assay_conditions: Homo sapiens, 120 h; NCI-H1975 cell proliferation, approximately 5 days; read-out: H1975 IC50
pIC50: −log10 of the molar value.

Consider the reported pIC50 for these compounds:
C[C@H]1Nc2ncnc3c2cc(C2(C#N)CCS(=O)(=O)CC2)c(=O)n3CCCCCN2CCC(CC2)CCC(F)(F)c2cccc1c2; > 6.00
C/C1=C\CCCCn2c(=O)c(C3CCS(=O)(=O)CC3)cc3c(ncnc32)N[C@H](C)c2cccc(c2)C(F)(F)C2CCN(CC2)C1; > 6.00

Moving on to another compound below.
Req: Requested field: pIC50. Item: "C[C@H]1Nc2ncnc3c2cc(C2CCS(=O)(=O)CC2)c(=O)n3CCCCCC(C)(C)CN2CCC(CC2)C(F)(F)c2cccc1c2"
Resp: > 6.00

###

# tested_on: UniProt:Q07889
# assay_notes: Ras-SOS interaction assay (HTRF), K-Ras G13D utilized
# Type: binding
# assay_conditions: K-Ras G13D, read-out: SOS1 IC50
property: IC50

COc1cc2nc(C)nc3c2cc1OCCOCCOCCOCCOCCNCc1ccccc1C1=CC=C(S1)[C@@H](C)N3; 100 to 5000 nM
C[C@H]1Nc2ncnc3c2cc(C2CCS(=O)(=O)CC2)c(=O)n3CCCCC[C@H](O)CN2CCC(CC2)C(F)(F)c2cccc1c2; < 100 nM
Cc1nc2c3cc(C4(C#N)CC4)c(=O)n(c3n1)CCCCCCCCCC(C)(O)C(F)(F)c1cccc(c1)[C@@H](C)N2 (some centres unmarked); 100 to 5000 nM
CC1CCCCCCn2c(=O)c(C3(C#N)CC3)cc3c(ncnc32)N[C@H](C)c2cccc(c2F)C(F)(F)C2CCN1CC2 (some centres unmarked); < 100 nM
C[C@H]1Nc2ncnc3c2cc(C2CCS(=O)(=O)CC2)c(=O)n3CCCCCCCCCN2CCC(CC2)C(F)(F)c2cccc1c2; < 100 nM
CC(C)N1CCN(c2cc3c4ncnc3n(c2=O)CCCCCCN2CCC(CC2)CC(F)(F)c2cccc(c2F)[C@@H](C)N4)CC1; < 100 nM
C[C@H]1Nc2ncnc3c2cc(C2(C#N)CC2)c(=O)n3CC(=O)NCCCCN2CCC(CC2)C(F)(F)c2cccc1c2; < 100 nM
CC(C)N1CCN(c2cc3c4ncnc(c4c2)N[C@H](C)c2cccc(c2)C(F)(F)C2CCN(CCCCCCO3)CC2)CC1; < 100 nM
Cc1nc2c3cc(C4(C#N)CC4)c(=O)n(c3n1)CCCCCCCCOCC(F)(F)c1cccc(c1F)[C@@H](C)N2; < 100 nM
C[C@H]1Nc2ncnc3c2cc(C2(C#N)CC2)c(=O)n3CCCCCC/C=C/CN2CCC(CC2)C(F)(F)c2cccc1c2; < 100 nM

Moving on to another compound below.
Req: Requested field: IC50. Item: "C[C@H]1Nc2ncnc3c2cc(C2(C#N)CCS(=O)(=O)CC2)c(=O)n3CCCOCCCN2CCC(CC2)CC(F)(F)c2cccc1c2"
Resp: < 100 nM

###

# tested_on: SOS1 (Homo sapiens (Human))
# assay_notes: Ras-SOS interaction assay (HTRF), K-Ras G13D utilized
# Format: binding
# assay_conditions: K-Ras G13D, read-out: SOS1 IC50
pIC50: −log10 of the molar value.
Listed here: items and their measured pIC50.

Req: Requested field: pIC50. Item: "CC(C)N1CCN(c2cc3c4ncnc3n(c2=O)CC(=O)NCCCCN2CCC(CC2)C(F)(F)c2cccc(c2)[C@@H](C)N4)CC1"
Resp: > 7.00

Req: Also, Cc1nc2c3cc(C4(C#N)CC4)c(=O)n(c3n1)CCCC/C=C\CC(C)(O)C(F)(F)c1cccc(c1)[C@@H](C)N2 (stereo partly shown) please.
Resp: 5.30 to 7.00

Req: Also, "COc1nnc2c3cc(C4CCS(=O)(=O)CC4)c(nc13)OCCCCCCCN1CCC(CC1)C(F)(F)c1cccc(c1F)[C@@H](C)N2" please.
Resp: > 7.00

Req: Also, "C[C@H]1Nc2ncnc3c2cc(C2CCS(=O)(=O)CC2)c(=O)n3CC/C=C\CC(C)(C)CN2CCC(CC2)C(F)(F)c2cccc1c2" please.
Resp: > 7.00

Req: Also, "C[C@H]1Nc2ncnc3c2cc(C2CCS(=O)(=O)CC2)c(=O)n3CCCCCCCN2CCC(CC2)C(F)(F)c2cccc1c2F" please.
Resp: > 7.00

Req: Also, "C[C@H]1Nc2ncnc3c2cc(C2(C#N)CC2)c(=O)n3CCCC/C=C\CN2CCC(CC2)C(F)(F)c2cccc1c2" please.
Resp: > 7.00

Req: Also, "C[C@H]1Nc2ncnc3c2cc(C2CCS(=O)(=O)CC2)c(=O)n3CCCOCCCCN2CC(C2)CC(F)(F)c2cccc1c2" please.
Resp: > 7.00
